Data origin: paper PMC12169608

target: mouse cathepsin L (mCTSL) (Mus musculus); experiment: mCTSL biochemical assay; conditions: read-out: pIC50 (mouse CTSL) (converted)
Sequence (P06797 114-334): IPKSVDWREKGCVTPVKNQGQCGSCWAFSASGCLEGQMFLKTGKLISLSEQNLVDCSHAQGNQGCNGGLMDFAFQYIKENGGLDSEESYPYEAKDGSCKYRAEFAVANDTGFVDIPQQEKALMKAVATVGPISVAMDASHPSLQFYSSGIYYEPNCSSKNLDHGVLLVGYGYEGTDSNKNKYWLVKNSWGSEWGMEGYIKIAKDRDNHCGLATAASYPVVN
Here the recorded IC50 is given for each entry.
recorded_metric: IC50 (nM)

compound="CCCCCCCCCCCCCCCC(=O)N[C@@H](Cc1cccc(F)c1)C(=O)N[C@@H](C[C@@H]1CCNC1=O)C(=O)COc1c(F)c(F)c(CO)c(F)c1F [compound 4]" assayed_target="mouse cathepsin L (mCTSL) (Mus musculus)" recorded_metric=IC50 readout_units=nM inequality_symbol== test_result=10500
compound="COc1cccc2[nH]c(C(=O)N[C@@H](Cc3cccc(F)c3)C(=O)N[C@@H](C[C@@H]3CCNC3=O)C(=O)COc3c(F)c(F)c(CO)c(F)c3F)cc12 [compound 1]" assayed_target="mouse cathepsin L (mCTSL) (Mus musculus)" recorded_metric=IC50 readout_units=nM inequality_symbol== test_result=83.2
compound="CCCCCCCC(=O)N[C@@H](Cc1cccc(F)c1)C(=O)N[C@@H](C[C@@H]1CCNC1=O)C(=O)COc1c(F)c(F)c(CO)c(F)c1F [compound 3]" assayed_target="mouse cathepsin L (mCTSL) (Mus musculus)" recorded_metric=IC50 readout_units=nM inequality_symbol== test_result=75.9
compound="COc1cccc2[nH]c(C(=O)N[C@H](Cc3cccc(F)c3)C(=O)N[C@@H](C[C@@H]3CCNC3=O)C(=O)COc3c(F)c(F)c(CO)c(F)c3F)cc12 [compound 2]" assayed_target="mouse cathepsin L (mCTSL) (Mus musculus)" recorded_metric=IC50 readout_units=nM inequality_symbol== test_result=13500
compound="COc1cccc2[nH]c(C(=O)N[C@@H](Cc3cccc(F)c3)C(=O)N[C@@H](C[C@@H]3CC(=O)NC3=O)C(=O)COc3c(F)c(F)c(C(C)O)c(F)c3F)cc12 (stereo partly shown) [compound 9]" assayed_target="mouse cathepsin L (mCTSL) (Mus musculus)" recorded_metric=IC50 readout_units=nM inequality_symbol== test_result=158
compound="CC(C)(O)c1c(F)c(F)c(OCC(=O)[C@H](C[C@@H]2CCNC2=O)NC(=O)[C@@H]2[C@@H]3[C@H](CN2C(=O)[C@@H](NC(=O)C(F)(F)F)C(C)(C)C)C3(C)C)c(F)c1F [compound 14]" assayed_target="mouse cathepsin L (mCTSL) (Mus musculus)" recorded_metric=IC50 readout_units=nM inequality_symbol=> test_result=50100
compound="CC(C)(C)[C@H](NC(=O)C(F)(F)F)C(=O)N1C[C@H]2[C@@H]([C@H]1C(=O)N[C@@H](C[C@@H]1CCNC1=O)C(=O)COc1c(F)c(F)c(CO)c(F)c1F)C2(C)C [compound 7]" assayed_target="mouse cathepsin L (mCTSL) (Mus musculus)" recorded_metric=IC50 readout_units=nM inequality_symbol== test_result=35500
compound="O=C(N[C@@H](Cc1c[nH]c2ccccc12)C(=O)N[C@@H](C[C@@H]1CCNC1=O)C(=O)COc1c(F)c(F)c(CO)c(F)c1F)c1cc2ccccc2[nH]1 [compound 5]" assayed_target="mouse cathepsin L (mCTSL) (Mus musculus)" recorded_metric=IC50 readout_units=nM inequality_symbol== test_result=224
compound="COc1cccc2[nH]c(C(=O)N[C@@H](Cc3cccc(F)c3)C(=O)N[C@@H](C[C@@H]3CC(=O)NC3=O)C(=O)COc3c(F)c(F)c(C(C)(C)O)c(F)c3F)cc12 [compound 11]" assayed_target="mouse cathepsin L (mCTSL) (Mus musculus)" recorded_metric=IC50 readout_units=nM inequality_symbol== test_result=316
compound="COc1cccc2[nH]c(C(=O)N[C@@H](Cc3cccc(F)c3)C(=O)N[C@@H](C[C@@H]3CCNC3=O)C(=O)COc3c(F)c(F)c(C(C)(C)O)c(F)c3F)cc12 [compound 10]" assayed_target="mouse cathepsin L (mCTSL) (Mus musculus)" recorded_metric=IC50 readout_units=nM inequality_symbol== test_result=933
